These entries and their values trace back to patent US7192746B2.

# System: α-isomaltosyl-transferring enzyme from Bacillus globisporus N75
# Assay type: biochemical
# MEASUREMENT_CONDITIONS: 1 mM metal ion; enzyme of Strain N75
ENDPOINT_NAME: Relative activity (%)
Your answer is read as %, so omit the unit and give the number.

Recorded results for 3 compounds are shown here.
[Zn+2] [Zn^2+]; 75
[Ba+2] [Ba^2+]; 102
[Al+3] [Al^3+]; 94

### Prompt Give the measured Relative activity of [Hg+2] [Hg^2+] .
### Response 0.5

### Prompt # query: Relative activity of entry [Pb+2] [Pb^2+]
### Response 69

### Prompt Field request: Relative activity | item: [Ca+2] [Ca^2+]
### Response 100

### Prompt Recorded Relative activity of [Mn+2] [Mn^2+] , please.
### Response 101

### Prompt Endpoint output: Relative activity of [Cu+2] [Cu^2+] . Value?
### Response 15

### Prompt Requested read-out: Relative activity. Entry: [Ni+2] [Ni^2+]
### Response 91

### Prompt Quick one: Relative activity of [Mg+2] [Mg^2+] ?
### Response 95

### Prompt May I ask what Relative activity has been recorded for [Co+2] [Co^2+] ?
### Response 92

### Prompt GET /values?readout=Relative activity&item= [Sr+2] [Sr^2+]
### Response 91

---

# System: α-isomaltosyl-transferring enzyme from Bacillus globisporus C11
# RUN_DESCRIPTION: Action on saccharides (substrates, TLC)
# Type: biochemical
# Set-up: key: −: there was found no substrate change before and after the enzymatic reaction; +: there were found both the reduction of substrate and the formation of cyclotetrasaccharide after the enzymatic reaction
# MEASUREMENT_CONDITIONS: 2 units/g substrate, 2% (w/v) substrate, 30° C., pH 6.0, 24 hours
ENDPOINT_NAME: Enzymatic action for forming cyclotetrasaccharide, Enzyme of Strain C11

Example results:
OC[C@H]1O[C@H](O[C@H]2[C@H](O)[C@@H](O)[C@@H](O[C@H]3[C@H](O)[C@@H](O)[C@@H](O[C@H]4[C@H](O)[C@@H](O)C(O)O[C@@H]4CO)O[C@@H]3CO)O[C@@H]2CO)[C@H](O)[C@@H](O)[C@@H]1O (some centres unmarked) [Maltotetraose, maltotetraose]; −
OC[C@H]1O[C@@H](OC[C@H]2OC(O)[C@H](O)[C@@H](O)[C@@H]2O)[C@H](O)[C@@H](O)[C@@H]1O (some centres unmarked) [Gentibiose, gentibiose]; −
OC[C@H]1O[C@H](O[C@H]2O[C@H](CO)[C@@H](O)[C@H](O)[C@H]2O)[C@H](O)[C@@H](O)[C@@H]1O [α,α-Trehalose, α,α-trehalose]; −
OC[C@@H](O)[C@@H](O[C@H]1O[C@H](CO)[C@@H](O)[C@H](O)[C@H]1O)[C@H](O)[C@@H](O)CO [Maltitol, maltitol]; −
OC[C@H]1O[C@H](OC[C@H]2O[C@H](O[C@H]3[C@H](O)[C@@H](O)C(O)O[C@@H]3CO)[C@H](O)[C@@H](O)[C@@H]2O)[C@H](O)[C@@H](O)[C@@H]1O (some centres unmarked) [Panose, panose]; +

### Prompt Give the reported Enzymatic action for forming cyclotetrasaccharide, Enzyme of Strain C11 for OC[C@H]1O[C@@H]2O[C@H]3[C@H](O)[C@@H](O)[C@@H](O[C@H]4[C@H](O)[C@@H](O)[C@@H](O[C@H]5[C@H](O)[C@@H](O)[C@@H](O[C@H]6[C@H](O)[C@@H](O)[C@@H](O[C@H]7[C@H](O)[C@@H](O)[C@@H](O[C@H]1[C@H](O)[C@H]2O)O[C@@H]7CO)O[C@@H]6CO)O[C@@H]5CO)O[C@@H]4CO)O[C@@H]3CO [α-Cyclodextrin, α-cyclodextrin] (system: α-isomaltosyl-transferring enzyme from Bacillus globisporus C11).
### Response −

### Prompt What reported Enzymatic action for forming cyclotetrasaccharide, Enzyme of Strain C11 corresponds to OC[C@H]1O[C@H](O[C@H]2[C@H](O)[C@@H](O)[C@H](O)O[C@@H]2CO)[C@H](O)[C@@H](O)[C@@H]1O [Maltose, maltose] on α-isomaltosyl-transferring enzyme from Bacillus globisporus C11?
### Response −

### Prompt What reported Enzymatic action for forming cyclotetrasaccharide, Enzyme of Strain C11 corresponds to OC[C@H]1O[C@@H](O[C@H]2[C@H](O)[C@@H](O)C(O)O[C@@H]2CO)[C@H](O)[C@@H](O)[C@H]1O (some centres unmarked) [Lactose, lactose] on α-isomaltosyl-transferring enzyme from Bacillus globisporus C11?
### Response −

### Prompt Provide value of Enzymatic action for forming cyclotetrasaccharide, Enzyme of Strain C11 for this record tested with α-isomaltosyl-transferring enzyme from Bacillus globisporus C11: OC[C@H]1O[C@@H](O[C@H]2O[C@H](CO)[C@@H](O)[C@H](O)[C@H]2O)[C@H](O)[C@@H](O)[C@@H]1O [α,β-trehalose]
### Response −

### Prompt Request: Enzymatic action for forming cyclotetrasaccharide, Enzyme of Strain C11, test system α-isomaltosyl-transferring enzyme from Bacillus globisporus C11, entry OC[C@H]1O[C@H](OC[C@H]2O[C@H](O[C@H]3[C@H](O)[C@@H](O)[C@@H](O[C@H]4[C@H](O)[C@@H](O)C(O)O[C@@H]4CO)O[C@@H]3CO)[C@H](O)[C@@H](O)[C@@H]2O)[C@H](O)[C@@H](O)[C@@H]1O (some centres unmarked) [Isomaltosylmaltose, isomaltosylmaltose]
### Response +

### Prompt Find Enzymatic action for forming cyclotetrasaccharide, Enzyme of Strain C11 (α-isomaltosyl-transferring enzyme from Bacillus globisporus C11) for the entry OC[C@H]1O[C@H](OC[C@H]2OC(O)[C@H](O)[C@@H](O)[C@@H]2O)[C@H](O)[C@@H](O)[C@@H]1O (some centres unmarked) [Isomaltose, isomaltose]
### Response −

---

# System: α-isomaltosyl-transferring enzyme from Bacillus globisporus N75
# RUN_DESCRIPTION: Specificity to transferring acceptor
# Assay type: biochemical
# Set-up: key: −: no saccharide transferred product was formed; ±: a saccharide-transferred product formed in an amount of less than one percent to the total sugars; +: a saccharide-transferred product was formed in an amount of over one percent but below 10% to the total sugars; ++: a saccharide-transferred product was formed in an amount of over 10% to the total sugars
# MEASUREMENT_CONDITIONS: panose as saccharide donor, 10 units/g substrate, 3.2% (w/v), 30° C., pH 6.0, 24 hours
ENDPOINT_NAME: Product of transferring reaction, Enzyme of Strain N75

OC[C@H]1O[C@@H]2O[C@H]3[C@H](O)[C@@H](O)[C@@H](O[C@H]4[C@H](O)[C@@H](O)[C@@H](O[C@H]5[C@H](O)[C@@H](O)[C@@H](O[C@H]6[C@H](O)[C@@H](O)[C@@H](O[C@H]7[C@H](O)[C@@H](O)[C@@H](O[C@H]8[C@H](O)[C@@H](O)[C@@H](O[C@H]9[C@H](O)[C@@H](O)[C@@H](O[C@H]1[C@H](O)[C@H]2O)O[C@@H]9CO)O[C@@H]8CO)O[C@@H]7CO)O[C@@H]6CO)O[C@@H]5CO)O[C@@H]4CO)O[C@@H]3CO [γ-Cyclodextrin, γ-cyclodextrin]; −
O=C[C@H](O)[C@H](O)[C@H](O)CO [D-Ribose, D-ribose]; −
O=C[C@@H](O)[C@@H](O)[C@@H](O)CO [L-Ribose, L-ribose]; −

---

# Test system: α-isomaltosyl-transferring enzyme from Arthrobacter globiformis A19
# RUN_DESCRIPTION: Action on saccharides (substrates, TLC)
# Type: biochemical
# Parameters: key: −: there was found no substrate change before and after the enzymatic reaction; +: there were found both the reduction of substrate and the formation of cyclotetrasaccharide after the enzymatic reaction
# MEASUREMENT_CONDITIONS: partially purified enzyme, 2 units/g substrate, 2% (w/v) substrate, 30° C., pH 6.0, 24 hours
# Text: To examine the saccharides in the supernatant, they were separated from the supernatant by silica gel thin-layer chromatography (abbreviated as “TLC” hereinafter) using, as a developer, a mixture solution of n-butanol, pyridine, and water (=6:4:1), and, as a thin-layer plate, “[…] 60”, an aluminum plate (20×20 cm) for TLC commercialized by Merck & Co., Inc., Rahway, USA. […]
ENDPOINT_NAME: Enzymatic action for forming cyclotetrasaccharide, Enzyme of Strain A19

OC[C@H]1O[C@H](OC[C@H]2O[C@H](O[C@H]3[C@H](O)[C@@H](O)[C@@H](O[C@H]4[C@H](O)[C@@H](O)C(O)O[C@@H]4CO)O[C@@H]3CO)[C@H](O)[C@@H](O)[C@@H]2O)[C@H](O)[C@@H](O)[C@@H]1O (some centres unmarked); +
OC[C@H]1O[C@@H](O[C@H]2[C@H](O)[C@@H](O)C(O)O[C@@H]2CO)[C@H](O)[C@@H](O)[C@H]1O (some centres unmarked); −
